molecular target: purified human neutrophil elastase (Homo sapiens, UniProt P08246); construct: Both purified human neutrophil elastase and cathepsin G degrade CPG; from tissue; host or cells: human neutrophils; experiment: Elastase mediated degradation of 35S-labeled cartilage matrix proteoglycan (CPG); assay type: biochemical; conditions: cartilage discs, 4 hours at 37° C.; FIG. 3; read-out: IC50, elastase mediated cartilage degradation
Sequence (P08246 30-247 limits assumed): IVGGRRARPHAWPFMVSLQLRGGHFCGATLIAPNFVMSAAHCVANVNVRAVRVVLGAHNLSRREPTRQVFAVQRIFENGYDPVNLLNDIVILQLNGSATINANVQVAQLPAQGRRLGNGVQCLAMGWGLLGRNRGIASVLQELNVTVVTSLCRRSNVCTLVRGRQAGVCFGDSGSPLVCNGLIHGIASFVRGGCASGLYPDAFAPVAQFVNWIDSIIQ
ENDPOINT NAME: IC50 (µM)

| MOLECULE | QUANTITY UNIT | REPORTED VALUE |
| --- | --- | --- |
| O=S(=O)(O)c1cc(N=C=S)ccc1C=Cc1ccc(N=C=S)cc1S(=O)(=O)O [DIDS, reference compound] | µM | 38 |
